# assay.remarks: Cmax in rat at 20 mg/kg, po
# Assay type: ADME, organism-based
# Parameters: dose 20 mg/kg, route oral
# condition.summary: in vivo
assay.metric: Cmax (ng/mL)
Use ng/mL as the unit, but write only the number.

[[record]]
compound_structure_string = "C=CC(=O)Nc1cccc(-c2c(-c3ccccc3)oc3ncnc(N[C@H](CO)c4ccccc4)c23)c1"
display_unit = "ng/mL"
obs_value = 193


Moving on to another compound below.
Exam item: Looking for the measured Cmax of CN(C)C/C=C/C(=O)Nc1cc2c(Nc3ccc(F)c(Cl)c3)ncnc2cc1O[C@H]1CCOC1 , can you help?
Marked response: 75.2

###

# assay.remarks: Cmax in rat at 23.6 mg/kg, po
# Type: ADME, organism-based
# Design: dose 23.6 mg/kg, route oral
# condition.summary: in vivo
assay.metric: Cmax (ng/mL)
Use ng/mL as the unit, but write only the number.

Exam item: Looking for the measured Cmax of CN(C)C/C=C/C(=O)Nc1cccc(-c2c(-c3ccccc3)oc3ncnc(N[C@H](CO)c4ccccc4)c23)c1 , can you help?
Marked response: 508

###

# assay.remarks: in vivo
# condition.summary: rat, po, 23.6 mg/kg
# Description: AUC (0 to infinity) in rat at 23.6 mg/kg, po
assay.metric: AUC(0-inf) (ng·h/mL)
Use ng·h/mL as the unit, but write only the number.

Exam item: Looking for the measured AUC(0-inf) of CN(C)C/C=C/C(=O)Nc1cccc(-c2c(-c3ccccc3)oc3ncnc(N[C@H](CO)c4ccccc4)c23)c1 , can you help?
Marked response: 2980

###

# assay.remarks: Inhibition of GST-tagged human HER2 V777_G778insCG mutant mutant using poly(Glu, Tyr) 4:1 substrate incubated for 120 mins by kinase-Glo plus luminescent kinase assay
Catalogue of IC50 readings, one per entry.
Put your answer as a value accompanied by its unit after it.

Solved entries:
[[record]]
molecule = "C=CC(=O)Nc1cc(Nc2nccc(-c3cn(C)c4ccccc34)n2)c(OC)cc1N(C)CCN(C)C [OSIMERTINIB]"
obs_value = "3.31 nM"

[[record]]
molecule = "C=CC(=O)Nc1cccc(-c2c(-c3ccccc3)oc3ncnc(N[C@H](C)c4ccccc4)c23)c1"
obs_value = "8.13 nM"

[[record]]
molecule = "CN(C)C/C=C/C(=O)Nc1cccc(-c2c(-c3ccccc3)oc3ncnc(N[C@H](CO)c4ccccc4)c23)c1"
obs_value = "0.203 nM"

[[record]]
molecule = "C=CC(=O)Nc1cccc(-c2c(-c3ccccc3OC)oc3ncnc(N[C@H](CO)c4ccccc4)c23)c1"
obs_value = "5.2 nM"

[[record]]
molecule = "C=CC(=O)N1CCC(Oc2cc3c(Nc4ccc(Cl)c(Cl)c4F)ncnc3cc2OC)CC1 [POZIOTINIB]"
obs_value = "0.206 nM"


Exam item: Looking for the measured IC50 of C=CC(=O)Nc1cccc(-c2c(-c3ccccc3)sc3ncnc(N[C@H](CO)c4ccccc4)c23)c1 , can you help?
Marked response: 369 nM

###

# Tested on: NCI-H1975
# assay.remarks: Cytotoxicity in human NCI-H1975 cells assessed as reduction in cell viability incubated for 96 hrs by MTS method
# Type: functional
# condition.summary: Homo sapiens, NCI-H1975, 96 h
assay.metric: CC50 (µM)
Use µM as the unit, but write only the number.

Solved entries:
[[record]]
compound_structure_string = "O=C(/C=C/CN1CCOCC1)Nc1cccc(-c2c(-c3ccccc3)oc3ncnc(N[C@H](CO)c4ccccc4)c23)c1"
display_unit = "µM"
obs_value = 2.83

[[record]]
compound_structure_string = "CCOC(=O)/C=C/C(=O)Nc1cccc(-c2c(-c3ccccc3)oc3ncnc(N[C@H](CO)c4ccccc4)c23)c1"
display_unit = "µM"
obs_value = 7.01

[[record]]
compound_structure_string = "C=CC(=O)Nc1cccc(-c2c(-c3ccccc3)sc3ncnc(N[C@H](CO)c4ccccc4)c23)c1"
display_unit = "µM"
obs_value = 10.7

[[record]]
compound_structure_string = "CN(C)C/C=C/C(=O)Nc1cc2c(Nc3ccc(F)c(Cl)c3)ncnc2cc1O[C@H]1CCOC1"
display_unit = "µM"
obs_value = 0.224

[[record]]
compound_structure_string = "CC#CC(=O)Nc1cccc(-c2c(-c3ccccc3)oc3ncnc(N[C@H](CO)c4ccccc4)c23)c1"
display_unit = "µM"
obs_value = 6.74

[[record]]
compound_structure_string = "C=CS(=O)(=O)Nc1cccc(-c2c(-c3ccccc3)oc3ncnc(N[C@H](CO)c4ccccc4)c23)c1"
display_unit = "µM"
obs_value = 7.24

[[record]]
compound_structure_string = "C=CC(=O)Nc1cccc(-c2c(Cl)sc3ncnc(N[C@H](CO)c4ccccc4)c23)c1"
display_unit = "µM"
obs_value = 8.66

[[record]]
compound_structure_string = "C=CC(=O)Nc1cccc(-c2c(-c3ccccc3OC)oc3ncnc(N[C@H](CO)c4ccccc4)c23)c1"
display_unit = "µM"
obs_value = 4.08


Exam item: Looking for the measured CC50 of CCN(CC)C/C=C/C(=O)Nc1cccc(-c2c(-c3ccccc3)oc3ncnc(N[C@H](CO)c4ccccc4)c23)c1 , can you help?
Marked response: 2.48

Exam item: Looking for the measured CC50 of CCN(C/C=C/C(=O)Nc1cccc(-c2c(-c3ccccc3)oc3ncnc(N[C@H](CO)c4ccccc4)c23)c1)CCO , can you help?
Marked response: 2.41

Exam item: Looking for the measured CC50 of C=CC(=O)Nc1cccc(-c2c(C)sc3ncnc(N[C@H](CO)c4ccccc4)c23)c1 , can you help?
Marked response: 12.6

Exam item: Looking for the measured CC50 of C=CC(=O)Nc1cccc(-c2c(-c3ccccc3)oc3ncnc(N[C@H](C)c4ccccc4)c23)c1 , can you help?
Marked response: 4.3

Exam item: Looking for the measured CC50 of C/C=C/C(=O)Nc1cccc(-c2c(-c3ccccc3)oc3ncnc(N[C@H](CO)c4ccccc4)c23)c1 , can you help?
Marked response: 13.2
